Recorded values, source the nanobody polyreactivity screen of Harvey et al. (2022).

test: yeast display, Sf9 membrane polyspecificity reagent, FACS + sequencing; frameworks hold sequencing errors
observable: polyreactivity (PSR sort gate)

# annotated cases, reported polyreactivity (PSR sort gate) shown
sequence=QVQLVESGGGLVQAGGSLRLSCAASGRIFGPYVMGWYRQAPGKERDFVAAISRRTGSTYYADSVKGRFTISRDNAKNTVYLQMNSLKPEDTAVYYCAATYYFSHVVGYGYWGQGTQVTVSS observable="polyreactivity (PSR sort gate)" readoutvalue="high polyreactivity"
sequence=QVQLVESGGGLVQAGGSLRLSCAASGSTFSYNAMGWYRQAPGKERELVAAITSSGSSTYYADSVKGRFTISRYNAKNTVYLQMNSLKPEDTAVYYCNAEVLFVAGQVQRNSGDYWGQGTQVTVSS observable="polyreactivity (PSR sort gate)" readoutvalue="low polyreactivity"
sequence=QVQLVESGGGLVQAGGSLRLSCAASGSTFHNYAMGCYRQAPGKERELVAGISVRGGGTYYADSVKGRFTISRDNAKNTVYVQMNSLKPEDTAVYYCNARSWYYVWRKGYRHGDYWGQGTQVTVSS observable="polyreactivity (PSR sort gate)" readoutvalue="high polyreactivity"
sequence=QVQLVESGGGLVQAGGSLRLSCAASGSTDSNAMGWYRQAPGKERELVAAISGTGSRTYYADSVKGRFTISRDNAKNTVYLQMNSLKPEDTAVYYCAAYSGYYRPRYNYWGQGTQVTVSS observable="polyreactivity (PSR sort gate)" readoutvalue="high polyreactivity"
sequence=QVQLVESGGGLVQAGGSLRLSCAASGRISRYNTLGWSSQAPGKERELVAVISWSGASTYYADSVKGRFTISRDNAKNTVYLQMNSLKPEDTAVYYCAAYYRWYNYDYWGQGTQVTVSS observable="polyreactivity (PSR sort gate)" readoutvalue="high polyreactivity"

## Input For the sequence shown here, "QVQLVESGGGLVQAGGSLRLSCAASGRIFYSKVMGWYRQAPGKERELVAALSGRTGGTYYADSVKGRFTISRDNAKNTVYLQMNSLKPEDTAVYYCAARVLYYYGSGPYDYWGQGTQVTVSS" , give the reported polyreactivity (PSR sort gate).
## Output low polyreactivity

## Input Requested field: polyreactivity (PSR sort gate). Item: "QVQLVESGGGLVQAGGSLRLSCAASGSTFDYYDMGWYRQAPGKERELVATVTSGGSTNYADSVKGRFTISRDNAKNTVYLQMNSLKPEDTAVYYCAADIGGDGEGYDYWGQGTQVTLSS"
## Output low polyreactivity

## Input Find the recorded polyreactivity (PSR sort gate) belonging to "QDQLVESGGGLVQAGGSLRLSCAASGSTLYMYAMGWYRQAPGKERELVAAISWSDDTTYYADSVKGRFTISRDNAKNTVYLQMNSLKPEDTAVYYCNAETYYGNSFGPFSYDYWGQGTQVTVSS" and report it.
## Output low polyreactivity

## Input Value lookup for polyreactivity (PSR sort gate); key = "QVQLVESGGGLVQAGGSLRLSCAASGSSFVYNVMGWYRQAPGKERELVAAIRWRGGSTYADSVKGRFTISRDNAKNTVYLQMNSLKPEDTAVYYCAAGIPRYWYAGHYDYWGQGSQVTVSS"
## Output low polyreactivity

## Input Bench note: what polyreactivity (PSR sort gate) did "QDQLVESGGGLVQAGGSLRLSSAASGLTLHGNAMGWYRHAPGKERELVATITSSGGSTFYADSVKGRFTLSRDNAKNTVYLKMNSMKPEDTAVYYCNADAPYSVDYYVRFDYWGQGTQVTVSS" show?
## Output low polyreactivity

## Input Please give the measured polyreactivity (PSR sort gate) for this sequence: "QVQLVESGGGLVQAGGSLRLSCAASGGIFGYYVMGWYRQAPGKERELVAVITRGGSTNYADSVKGRFTISRDNAKNTVYLQMNSLKPEDTAVYYFAKDVPYRRVRSEYWGQGTQVTVSS"
## Output low polyreactivity
